Listing of entries alongside the reported EC50.
# Tested on: T. cruzi strain Y trypomastigotes
# assay-details: Host cell infection inhibition assay (trypomastigote entry into L6 cells)
# Format: cell-based, Trypanosoma cruzi
# protocol-conditions: inhibition of host cell invasion, 1 h preincubation, 3 h infection, 72 h culture
Numbers only here, please. The scale is µM.

O=C(C1CCCN1C(=O)CCCc1ccc(Cl)cc1)N1CCOCC1 (centres unmarked) [LC-55] ... 18.6

Kindly consider the entry below.
Record O=C(NCCOc1cccc2cccnc12)C1CCCCC1C(=O)N1CCCC1 (centres unmarked) [LC-44] . Reported EC50: 92.4

* * *

# experimental-system: recombinant POPTc80 (Trypanosoma cruzi)
# assay-details: POPTc80 enzyme inhibition and kinetic assay (Suc-GPLGP-AMC fluorogenic substrate)
# Format: biochemical
# protocol-conditions: 20 μM Suc-GPLGP-AMC, pH 7.5; means ± SD of three replications; read-out: POPTc80 IC50
Listing of entries alongside the reported pIC50.
Scale: negative log10 of molar concentration, which is what pIC50 denotes.

Here is how some molecules turned out for pIC50.
O=C(NCCc1cnccn1)C1CCCCC1C(=O)N1CCCC1 (centres unmarked) [LC-48] ... 6.02
O=C(NCCCc1ccccn1)C1CCCCC1C(=O)N1CCCC1 (centres unmarked) [LC-46] ... 6.40

Kindly consider the entry below.
Record O=C(C1CCCN1C(=O)CCCc1ccc(Cl)cc1)N1CCOCC1 (centres unmarked) [LC-55] . Reported pIC50: 6.36

* * *

Listing of entries alongside the reported POPTc80 LE (ligand efficiency).
# experimental-system: recombinant POPTc80 (Trypanosoma cruzi)
# assay-details: POPTc80 enzyme inhibition and kinetic assay (Suc-GPLGP-AMC fluorogenic substrate)
# Assay type: biochemical
# Description: The enzyme activity was assessed using the fluorogenic substrate Suc-GPLGP-AMC previously described by Santana et al.[14] […] The release of AMC was monitored over a period of 20 min by measuring its emission at 460 nm, following excitation at 355 nm, using a 96-well microplate fluorescence reader (M5, Molecular Devices). […] Active enzyme concentration was determined by titration with a chloromethyl ketone irreversible inhibitor of POPTc80.[13] […]
Your reply should be a number followed by the unit it is expressed in.

Here is how some compounds turned out for POPTc80 LE (ligand efficiency).
O=C(NCCCc1ccccn1)C1CCCCC1C(=O)N1CCCC1 (centres unmarked) [LC-46] ... 0.35 kcal/mol per heavy atoms
Cn1c(CNC(=O)C2CCCCC2C(=O)N2CCCC2)nc2ccccc21 (centres unmarked) [LC-53] ... 0.35 kcal/mol per heavy atoms
O=C(C1CCCN1C(=O)CCCc1ccc(Cl)cc1)N1CCOCC1 (centres unmarked) [LC-55] ... 0.35 kcal/mol per heavy atoms
O=C(C1CCCN1C(=O)NCc1cc2ccccc2s1)N1CCOCC1 (centres unmarked) [LC-50] ... 0.31 kcal/mol per heavy atoms
COC(OC)C1CCCN1C(=O)C1CCCN1C(=O)OCc1ccccc1 (centres unmarked) [ZPPD, Z-P-prolinal dimethylacetal] ... 0.31 kcal/mol per heavy atoms
O=C(NCCOc1cccc2cccnc12)C1CCCCC1C(=O)N1CCCC1 (centres unmarked) [LC-44] ... 0.33 kcal/mol per heavy atoms
Cc1nc2ccc(CNC(=O)C3CCCCC3C(=O)N3CCCC3)cc2[nH]1 (centres unmarked) [LC-47] ... 0.30 kcal/mol per heavy atoms

Kindly consider the entry below.
Record O=C(NCCc1cscn1)C1CCCCC1C(=O)N1CCCC1 (centres unmarked) [LC-45] . Reported POPTc80 LE (ligand efficiency): 0.44 kcal/mol per heavy atoms

* * *

# experimental-system: recombinant POPTc80 (Trypanosoma cruzi, UniProt Q4E132)
# Sequence (Q4E132 entry or part of it): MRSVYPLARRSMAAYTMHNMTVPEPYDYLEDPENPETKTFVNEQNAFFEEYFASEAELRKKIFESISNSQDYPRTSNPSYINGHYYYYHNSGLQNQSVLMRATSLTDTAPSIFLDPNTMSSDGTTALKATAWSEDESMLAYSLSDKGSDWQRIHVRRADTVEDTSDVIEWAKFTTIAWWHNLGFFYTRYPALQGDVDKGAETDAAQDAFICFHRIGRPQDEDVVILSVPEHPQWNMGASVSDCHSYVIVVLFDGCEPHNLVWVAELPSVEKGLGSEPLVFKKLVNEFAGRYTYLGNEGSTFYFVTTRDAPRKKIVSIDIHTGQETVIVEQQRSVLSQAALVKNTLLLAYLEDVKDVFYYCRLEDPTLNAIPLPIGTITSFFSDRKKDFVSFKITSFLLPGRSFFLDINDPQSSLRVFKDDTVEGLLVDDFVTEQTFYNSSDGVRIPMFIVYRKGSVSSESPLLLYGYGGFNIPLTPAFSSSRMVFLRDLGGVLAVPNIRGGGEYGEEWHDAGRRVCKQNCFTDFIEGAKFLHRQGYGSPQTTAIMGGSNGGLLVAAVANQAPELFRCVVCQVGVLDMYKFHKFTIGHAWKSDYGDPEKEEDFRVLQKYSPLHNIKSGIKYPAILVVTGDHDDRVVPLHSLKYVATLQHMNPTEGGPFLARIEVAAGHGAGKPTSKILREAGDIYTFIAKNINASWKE
# assay-details: POPTc80 enzyme inhibition and kinetic assay (Suc-GPLGP-AMC fluorogenic substrate)
# Assay type: biochemical
# Description: The enzyme activity was assessed using the fluorogenic substrate Suc-GPLGP-AMC previously described by Santana et al.[14] […] The release of AMC was monitored over a period of 20 min by measuring its emission at 460 nm, following excitation at 355 nm, using a 96-well microplate fluorescence reader (M5, Molecular Devices). […] Active enzyme concentration was determined by titration with a chloromethyl ketone irreversible inhibitor of POPTc80.[13] […]
readout-kind: pIC50
Scale: negative log10 of molar concentration, which is what pIC50 denotes.

Record O=C(C1CCCN1C(=O)NCc1cc2ccccc2s1)N1CCOCC1 (stereo not shown) [LC-50] . Reported pIC50: 6.23

* * *

Listing of entries alongside the reported pIC50.
# experimental-system: recombinant POPTc80 (Trypanosoma cruzi, UniProt Q4E132)
# assay-details: POPTc80 enzyme inhibition and kinetic assay (Suc-GPLGP-AMC fluorogenic substrate)
# Type: biochemical
# protocol-conditions: 20 μM Suc-GPLGP-AMC, pH 7.5; means ± SD of three replications; read-out: POPTc80 IC50
# Description: The enzyme activity was assessed using the fluorogenic substrate Suc-GPLGP-AMC previously described by Santana et al.[14] […] The release of AMC was monitored over a period of 20 min by measuring its emission at 460 nm, following excitation at 355 nm, using a 96-well microplate fluorescence reader (M5, Molecular Devices). […] Active enzyme concentration was determined by titration with a chloromethyl ketone irreversible inhibitor of POPTc80.[13] […]
pIC50: −log10 of the molar value.

Cc1cccc(NC(=O)CC(=O)N2CCCC2C(=O)N2CCOCC2)c1 (stereo not drawn) ... < 4.70
O=C(NCCc1cscn1)C1CCCCC1C(=O)N1CCCC1 (stereo not drawn) ... 6.64

Record Cc1nn(C)c(C)c1CCC(=O)N1CCCC1C(=O)N1CCCCC1 (stereo not drawn) . Reported pIC50: < 4.70

Record O=C(NCCCc1nc2cc(Cl)ccc2[nH]1)C1CCCCN1C(=O)C1CC1 (stereo not drawn) . Reported pIC50: < 4.70

Record Cc1csc(SCC(=O)N2CCCC2C(=O)N2CCOCC2)n1 (stereo not drawn) . Reported pIC50: < 4.70

Record O=C(C1CCCN1C(=O)Cn1sc2ccccc2c1=O)N1CCCCC1 (stereo not drawn) . Reported pIC50: < 4.70

Record O=C(NCCc1nccs1)C1CCCCN1C(=O)C1CC1 (stereo not drawn) . Reported pIC50: < 4.70

Record Cn1c(CNC(=O)C2CCCCC2C(=O)N2CCCC2)nc2ccccc21 (stereo not drawn) . Reported pIC50: 6.57

Record O=C(NCCOc1cccc2cccnc12)C1CCCCC1C(=O)N1CCCC1 (stereo not drawn) . Reported pIC50: 6.19

* * *

# experimental-system: recombinant POPTc80 (Trypanosoma cruzi, UniProt Q4E132)
# assay-details: POPTc80 enzyme inhibition and kinetic assay (Suc-GPLGP-AMC fluorogenic substrate)
# Format: biochemical
readout-kind: Ki (nM)
Numbers only here, please. The scale is nM.

Record O=C(C1CCCN1C(=O)NCc1cc2ccccc2s1)N1CCOCC1 (stereo not shown) . Reported Ki: 440

Values were extracted from paper PMC11898053.
